Structures can show the parent of a compound that is named as a salt.
I'd appreciate it if you could supply melting point values for the items below.
Unit °C implied. Number only.

Entry Cc1cn(-c2ccc3n(c2=O)CCN(CCC2COc4ccccc4O2)C3=O)cn1 (stereo not shown) , melting point reported as 176.8

Entry Cc1cn(-c2ccc3n(c2=O)CCN(C2CCc4c2cccc4C(F)(F)F)C3=O)cn1 (stereo not shown) , melting point reported as 253.5

Entry Cc1cn(-c2ccc3n(c2=O)CCN(Cc2cccc(-c4ccccc4)c2)C3=O)cn1 , melting point reported as 165.6

Entry CCOc1cc(C(C)N2C(=O)c3ccc(-n4cnc(C)c4)c(=O)n3C[C@H]2C)cc(C(F)(F)F)c1 (single isomer, unassigned) (as salt: HCl) [compound 143] , melting point reported as 229.3

====

measured_target: γ-secretase (Homo sapiens, UniProt P49768)
Construct: endogenous in cells; host or cells: SKNBE2 human neuroblastoma cells (carrying hAPP 695 wild type as substrate)
protocol_summary: Screening for γ-secretase-modulating activity: Aβ42 in supernatant of SKNBE2 cells carrying hAPP 695 wild type (Alphalisa)
Assay type: cell-based
cond: SKNBE2 human neuroblastoma cells carrying hAPP 695 wild type, overnight incubation, Aβ42 in cell supernatant
I'd appreciate it if you could supply IC50 values for the items below.
Unit nM implied. Number only.

Entry Cc1cn(-c2ccc3n(c2=O)C[C@@H](C)N(Cc2ccc(Cl)c(N4CCCCC4)c2)C3=O)cn1 [compound 85] , IC50 reported as 60

Entry CCn1c(C)c(CN2C(=O)c3ccc(-n4cnc(C)c4)c(=O)n3C[C@H]2C)c2cc(C(F)(F)F)ccc21 [compound 182] , IC50 reported as 10

Entry Cc1cn(-c2ccc3n(c2=O)C[C@@H](C)N(Cc2cccc(OC(F)(F)F)c2)C3=O)cn1 [compound 79] , IC50 reported as 280

====

Where a name gives a salt, the structure may show the parent alone.
I'd appreciate it if you could supply melting point values for the items below.
Unit °C implied. Number only.

Entry CCC(c1cc(OC)cc(C(F)(F)F)c1)N1C(=O)c2ccc(-n3cnc(C)c3)c(=O)n2C[C@H]1C (single isomer, unassigned) (as salt: HCl) [compound 142] , melting point reported as 141.4

Entry Cc1cc(CN2C(=O)c3ccc(-n4cnc(C)c4)c(=O)n3C[C@H]2C)cc(C(F)(F)F)c1 , melting point reported as 167.7

Entry Cc1cn(-c2ccc3n(c2=O)CCN(CCOCc2ccc(Cl)cc2)C3=O)cn1 , melting point reported as 168

Entry Cc1cn(-c2ccc3n(c2=O)C[C@@H](C)N(C(C)c2cc(Cl)cc(Cl)c2)C3=O)cn1 (single isomer, unassigned) , melting point reported as 146

Entry Cc1cn(-c2ccc3n(c2=O)C[C@@H](C)N(Cc2cc(N4CCCC4)ccc2Cl)C3=O)cn1 (as salt: HCl) , melting point reported as 233.6

Entry Cc1cn(-c2ccc3n(c2=O)CCN(C(C)c2cccc(Cl)c2Cl)C3=O)cn1 (single isomer, unassigned) [10a] , melting point reported as 203.8

Entry Cc1cn(-c2ccc3n(c2=O)C[C@@H](C)N(Cc2cc(Cl)cc(Cl)c2)C3=O)cn1 , melting point reported as 170.7

====

Where a name gives a salt, the structure may show the parent alone.
quantity_measured: melting point (°C)
Unit °C implied. Number only.

Entry COc1ccc(Cl)cc1CCN1C(=O)c2ccc(-n3cnc(C)c3)c(=O)n2C[C@H]1C [compound 233] , melting point reported as 193

Entry Cc1cn(-c2ccc3n(c2=O)C[C@@H](C)N(Cc2cc(OCC(F)(F)F)cc(C(F)(F)F)c2)C3=O)cn1 (as salt: HCl) [compound 166] , melting point reported as 137.5

Entry Cc1cn(-c2ccc3n(c2=O)C[C@@H](C)N(Cc2ccc(C(F)(F)F)c(C(F)(F)F)c2)C3=O)cn1 [compound 46] , melting point reported as 145.6

Entry Cc1cn(-c2ccc3n(c2=O)CCN(C(C)c2cccc(C(F)(F)F)c2)C3=O)cn1 (single isomer, unassigned) [11a] , melting point reported as 181.1

Entry Cc1cn(-c2ccc3n(c2=O)CCN(C(C)c2cn(C)c4cc(F)c(Cl)cc24)C3=O)cn1 (single isomer, unassigned) [compound 185] , melting point reported as 258

Entry COc1cc(C(C)N2C(=O)c3ccc(-n4cnc(C)c4)c(=O)n3C[C@H]2C)cc(C(F)(F)F)c1 (single isomer, unassigned) (as salt: HCl) [compound 149] , melting point reported as 122

Entry Cc1cn(-c2ccc3n(c2=O)C[C@@H](C)N(C(C)c2cc(CC4CC4)cc(C(F)(F)F)c2)C3=O)cn1 (single isomer, unassigned) (as salt: HCl) [compound 135] , melting point reported as 213.2

====

measured_target: γ-secretase (Homo sapiens, UniProt P49768)
Construct: endogenous in cells; host or cells: SKNBE2 human neuroblastoma cells (carrying hAPP 695 wild type as substrate)
protocol_summary: Screening for γ-secretase-modulating activity: Aβtotal in supernatant of SKNBE2 cells carrying hAPP 695 wild type (Alphalisa)
Type: cell-based
cond: SKNBE2 human neuroblastoma cells carrying hAPP 695 wild type, overnight incubation, Aβtotal in cell supernatant
quantity_measured: pIC50
Expect pIC50 as a plain number equal to -log10 of the molar concentration.

Entry Cc1cn(-c2ccc3n(c2=O)C[C@@H](C)N(Cc2cn(C)c4cc(C(F)(F)F)c(F)cc24)C3=O)cn1 [compound 258] , pIC50 reported as 5.05

Entry CCn1cc(C(C)N2C(=O)c3ccc(-n4cnc(C)c4)c(=O)n3CC2C)c2cc(C(F)(F)F)ccc21 (single isomer, unassigned) [compound 216] , pIC50 reported as 5.19

====

measured_target: γ-secretase (Homo sapiens)
Construct: endogenous in cells; host or cells: SKNBE2 human neuroblastoma cells (carrying hAPP 695 wild type as substrate)
protocol_summary: Screening for γ-secretase-modulating activity: Aβ42 in supernatant of SKNBE2 cells carrying hAPP 695 wild type (Alphalisa)
Type: cell-based
cond: SKNBE2 human neuroblastoma cells carrying hAPP 695 wild type, overnight incubation, Aβ42 in cell supernatant
I'd appreciate it if you could supply pIC50 values for the items below.
Expect pIC50 as a plain number equal to -log10 of the molar concentration.

Tested system γ-secretase (Homo sapiens); pIC50 recorded for Cc1cc(CN2C(=O)c3ccc(-n4cnc(C)c4)c(=O)n3C[C@H]2C)cc(C(F)(F)F)c1 was 6.74

Tested system γ-secretase (Homo sapiens); pIC50 recorded for Cc1cn(-c2ccc3n(c2=O)CCN(CCOCc2ccc(Cl)cc2)C3=O)cn1 was 6.23

Tested system γ-secretase (Homo sapiens); pIC50 recorded for Cc1cn(-c2ccc3n(c2=O)C[C@@H](C)N(Cc2cc(N4CCCC4)ccc2Cl)C3=O)cn1 was 6.96

Tested system γ-secretase (Homo sapiens); pIC50 recorded for Cc1cn(-c2ccc3n(c2=O)CCN(Cc2cccc(-c4ccccc4)c2)C3=O)cn1 was 7.10

Tested system γ-secretase (Homo sapiens); pIC50 recorded for Cc1cn(-c2ccc3n(c2=O)CCN(Cc2cccc(C4CC4)c2)C3=O)cn1 was 6.13

Tested system γ-secretase (Homo sapiens); pIC50 recorded for Cc1cn(-c2ccc3n(c2=O)C[C@@H](C)N(Cc2cc(F)cc(OC(F)(F)F)c2)C3=O)cn1 was 6.02

Tested system γ-secretase (Homo sapiens); pIC50 recorded for Cc1cn(-c2ccc3n(c2=O)C(C)C(C)N(Cc2cc(C(F)(F)F)cc(C(F)(F)F)c2)C3=O)cn1 (single isomer, unassigned) [14b] was 6.19

====

measured_target: γ-secretase (Homo sapiens, UniProt P49768)
Construct: endogenous in cells; host or cells: SKNBE2 human neuroblastoma cells (carrying hAPP 695 wild type as substrate)
protocol_summary: Screening for γ-secretase-modulating activity: Aβtotal in supernatant of SKNBE2 cells carrying hAPP 695 wild type (Alphalisa)
Type: cell-based
cond: SKNBE2 human neuroblastoma cells carrying hAPP 695 wild type, overnight incubation, Aβtotal in cell supernatant
pIC50: −log10 of the molar value.
quantity_measured: pIC50

Entry C[C@@H]1Cn2c(ccc(-n3cnc(Cl)c3)c2=O)C(=O)N1Cc1cc(C(F)(F)F)cc(C(F)(F)F)c1 , pIC50 reported as < 5.00

Entry Cc1cn(-c2ccc3n(c2=O)CC(C)N(C(C)c2cn(C)c4ccc(C(F)(F)F)cc24)C3=O)cn1 (single isomer, unassigned) [compound 215] , pIC50 reported as 5.84

Entry Cc1cn(-c2ccc3n(c2=O)CCC(C)N(Cc2cc(C(F)(F)F)cc(C(F)(F)F)c2)C3=O)cn1 (stereo not shown) , pIC50 reported as < 5.00

Entry CCOc1cc(C(C)N2C(=O)c3ccc(-n4cnc(C)c4)c(=O)n3C[C@H]2C)cc(C(F)(F)F)c1 (single isomer, unassigned) [compound 143] , pIC50 reported as < 5.00

Entry Cc1cn(-c2ccc3n(c2=O)C[C@@H](C)N(Cc2c[nH]c4cc(F)c(Cl)cc24)C3=O)cn1 , pIC50 reported as 5.19

Entry Cc1cn(-c2ccc3n(c2=O)CC(C)N(C(C)c2cn(C(C)C)c4cc(F)c(Cl)cc24)C3=O)cn1 (single isomer, unassigned) [compound 194] , pIC50 reported as 5.81

Entry Cc1cn(-c2ccc3n(c2=O)CCN(C(C)c2cccc(C(F)(F)F)c2)C3=O)cn1 (single isomer, unassigned) [11b] , pIC50 reported as < 5.00

Entry Cc1cn(-c2ccc3n(c2=O)C[C@@H](C)N(Cc2cc(F)cc(OC(F)(F)F)c2)C3=O)cn1 , pIC50 reported as < 5.00

Entry Cc1cn(-c2ccc3n(c2=O)CCN(Cc2cc(OC(C)C)cc(C(F)(F)F)c2)C3=O)cn1 , pIC50 reported as < 5.00

Entry CCn1cc(C(C)N2C(=O)c3ccc(-n4cnc(C)c4)c(=O)n3CC2C)c2cc(Cl)cc(F)c21 (single isomer, unassigned) [compound 221] , pIC50 reported as 6.10

Entry Cc1cn(-c2ccc3n(c2=O)CCN(Cc2cccc(Cl)c2F)C3=O)cn1 , pIC50 reported as < 5.00

Entry Cc1cn(-c2ccc3n(c2=O)CC(C)N(C(C)c2c[nH]c4c(F)cc(Cl)cc24)C3=O)cn1 (single isomer, unassigned) [compound 219] , pIC50 reported as 5.51

Entry Cc1cn(-c2ccc3n(c2=O)CCN(Cc2nccc(OCC(F)(F)F)c2C)C3=O)cn1 , pIC50 reported as < 5.00

Entry Cc1cn(-c2ccc3n(c2=O)C[C@@H](C)N(Cc2cc(C4CC4)cc(C(F)(F)F)c2)C3=O)cn1 , pIC50 reported as < 5.00

Entry Cc1cn(-c2ccc3n(c2=O)C[C@@H](C)N(C(C)c2cc(CC4CC4)cc(C(F)(F)F)c2)C3=O)cn1 (single isomer, unassigned) [compound 136] , pIC50 reported as < 5.00

Entry Cc1cn(-c2ccc3n(c2=O)C[C@@H](CN(C)C)N(Cc2cc(C(F)(F)F)cc(C(F)(F)F)c2)C3=O)cn1 , pIC50 reported as < 5.00

Entry Cc1cn(-c2ccc3n(c2=O)C[C@@H](C)N(Cc2ccccc2C)C3=O)cn1 , pIC50 reported as < 5.00

Entry Cc1ccc2c(c1)c(CN1C(=O)c3ccc(-n4cnc(C)c4)c(=O)n3C[C@H]1C)cn2CC(F)(F)F , pIC50 reported as < 5.00

Entry Cc1cn(-c2ccc3n(c2=O)C[C@@H](C)N(Cc2ccc(F)c(F)c2)C3=O)cn1 , pIC50 reported as < 5.00

Entry O=C1c2ccc(-n3ccnc3)c(=O)n2CCN1Cc1cccc(-c2ccccc2)c1 , pIC50 reported as < 5.00

Entry Cc1ncn(-c2ccc3n(c2=O)CC(C)N(Cc2cc(C(F)(F)F)cc(C(F)(F)F)c2)C3=O)n1 (stereo not shown) , pIC50 reported as < 5.00

Entry CCOc1cc(C(C)N2C(=O)c3ccc(-n4cnc(C)c4)c(=O)n3C[C@H]2C)cc(C(F)(F)F)c1 (single isomer, unassigned) [compound 144] , pIC50 reported as < 5.00

Entry Cc1cn(-c2ccc3n(c2=O)C[C@@H](C)N(Cc2cccc(C(C)(C)C)c2)C3=O)cn1 , pIC50 reported as < 5.00

Entry Cc1cn(-c2ccc3n(c2=O)C[C@@H](C2CC2)N(Cc2ccc(Cl)c(Cl)c2)C3=O)cn1 , pIC50 reported as < 5.00

Entry CCn1cc(C(C)N2C(=O)c3ccc(-n4cnc(C)c4)c(=O)n3C[C@H]2C)c2ccc(C(F)(F)F)cc21 (single isomer, unassigned) [compound 244] , pIC50 reported as < 5.00

Entry Cc1cn(-c2ccc3n(c2=O)CCN(c2ccc(F)cc2C)C3=O)cn1 , pIC50 reported as < 5.00

Entry CCC1Cn2c(ccc(-n3cnc(C)c3)c2=O)C(=O)N1Cc1cc(C(F)(F)F)cc(C(F)(F)F)c1.Cl (stereo not shown) , pIC50 reported as < 5.00

Entry Cc1cn(-c2ccc3n(c2=O)CCN(Cc2cccc(C(F)(F)F)c2Cl)C3=O)cn1 , pIC50 reported as < 5.00

The values you see were collected from patent US20150141411A1.
